For each record, write down the corresponding MIC.
# System: Neisseria meningitidis isolates
# experimental.details: Minimum inhibitory concentration, macro broth dilution, Neisseria meningitidis isolates (Test 2)
# Format: cell-based
# assay.context: 24 h, Neisseria meningitidis isolate 7957, read-out: Minimum Inhibitory Concentration
One number for each entry, in µg/mL.

Before answering, review these 2 worked examples.
CC(=NNC(=S)N1CCCC1)c1ccc2ccccc2n1 | 0.062
CC(=NNC(=S)N(CC(C)C)CC(C)C)c1ccc2ccccc2n1 | 0.125

Record CC1(C)S[C@@H]2[C@H](NC(=O)[C@H](N)c3ccccc3)C(=O)N2[C@H]1C(=O)O [Ampicillin, reference compound] . Reported MIC: 0.008

* * *

# Test system: Neisseria meningitidis isolates
# experimental.details: Minimum inhibitory concentration, macro broth dilution, Neisseria meningitidis isolates (Test 2)
# Type: cell-based
# assay.context: 24 h, Neisseria meningitidis isolate 8011, read-out: Minimum Inhibitory Concentration
experimental.endpoint: MIC (µg/mL)
Numbers only, in µg/mL.

Before answering, review these 3 worked examples.
CC1(C)S[C@@H]2[C@H](NC(=O)[C@H](N)c3ccccc3)C(=O)N2[C@H]1C(=O)O [Ampicillin, reference compound] | 0.016
CC(=NNC(=S)N(CC(C)C)CC(C)C)c1ccc2ccccc2n1 | 0.5
CC(=NNC(=S)N1CCCCCC1)c1ccc2ccccc2n1 | 0.25

Kindly consider the entry below.
Record CC(=NNC(=S)N1CCCC1)c1ccc2ccccc2n1 . Reported MIC: 0.125

* * *

For each record, write down the corresponding MIC.
# System: Neisseria meningitidis isolates
# experimental.details: Minimum inhibitory concentration, macro broth dilution, Neisseria meningitidis isolates (Test 2)
# Type: cell-based
# assay.context: 24 h, Neisseria meningitidis isolate 7990, read-out: Minimum Inhibitory Concentration
Numbers only, in µg/mL.

CC(=NNC(=S)N1CCCC1)c1ccc2ccccc2n1 | 0.125

Parameter requested: MIC. Apply to each item below.
1. CC1(C)S[C@@H]2[C@H](NC(=O)[C@H](N)c3ccccc3)C(=O)N2[C@H]1C(=O)O [Ampicillin, reference compound]
2. CC(=NNC(=S)N(CC(C)C)CC(C)C)c1ccc2ccccc2n1
3. CC(=NNC(=S)N1CCCCCC1)c1ccc2ccccc2n1

RESULT:
1. 0.008
2. 0.5
3. 0.125

* * *

# System: Mycobacterium smegmatis strains
# experimental.details: Minimum inhibitory concentration, Mycobacterium smegmatis strains (Test 4)
# Type: cell-based
# assay.context: Mycolicibacterium smegmatis, 24 h, Rifampin-resistant daughter strain (III)
experimental.endpoint: MIC

Before answering, review these 3 worked examples.
CC(=NNC(=S)N1CCN(c2ccccn2)CC1)c1ccc2ccccc2n1 [Compound 3H] | 5 µg/mL
CC(=NNC(=S)N1CCCCCC1)c1ccc2ccccc2n1 [Compound 3F] | 10 µg/mL
CC(=NNC(=S)N(CC(C)C)CC(C)C)c1ccc2ccccc2n1 [Compound 3K] | > 50 µg/mL

Parameter requested: MIC. Apply to each item below.
1. CO[C@H]1/C=C/O[C@@]2(C)Oc3c(C)c(O)c4c(O)c(c(/C=N/N5CCN(C)CC5)c(O)c4c3C2=O)NC(=O)/C(C)=C\C=C\[C@H](C)[C@H](O)[C@@H](C)[C@@H](O)[C@@H](C)[C@H](OC(C)=O)[C@@H]1C [Rifampin, reference compound]
2. CC(=NNC(=S)N1CCCC1)c1ccc2ccccc2n1 [Compound 3I]
3. CCCNC(=S)NN=C(C)c1ccc2ccccc2n1 [Compound 3J]

RESULT:
250 µg/mL
1.5 µg/mL
2 µg/mL

Record CC(=NNC(=S)N1CC2CCC(CC2)C1)c1ccc2ccccc2n1 [Compound 3G] . Reported MIC: 10 µg/mL
